Where these numbers come from: paper PMC3627576

# ASSAY_TARGET: Pfu-Pol D (family-D DNA polymerase, DP1 small + DP2 large subunits) (Pyrococcus furiosus, UniProt P81409;P81412 1-1263;1-613)
# Sequence (P81409 whole entry, chain 1 of 2): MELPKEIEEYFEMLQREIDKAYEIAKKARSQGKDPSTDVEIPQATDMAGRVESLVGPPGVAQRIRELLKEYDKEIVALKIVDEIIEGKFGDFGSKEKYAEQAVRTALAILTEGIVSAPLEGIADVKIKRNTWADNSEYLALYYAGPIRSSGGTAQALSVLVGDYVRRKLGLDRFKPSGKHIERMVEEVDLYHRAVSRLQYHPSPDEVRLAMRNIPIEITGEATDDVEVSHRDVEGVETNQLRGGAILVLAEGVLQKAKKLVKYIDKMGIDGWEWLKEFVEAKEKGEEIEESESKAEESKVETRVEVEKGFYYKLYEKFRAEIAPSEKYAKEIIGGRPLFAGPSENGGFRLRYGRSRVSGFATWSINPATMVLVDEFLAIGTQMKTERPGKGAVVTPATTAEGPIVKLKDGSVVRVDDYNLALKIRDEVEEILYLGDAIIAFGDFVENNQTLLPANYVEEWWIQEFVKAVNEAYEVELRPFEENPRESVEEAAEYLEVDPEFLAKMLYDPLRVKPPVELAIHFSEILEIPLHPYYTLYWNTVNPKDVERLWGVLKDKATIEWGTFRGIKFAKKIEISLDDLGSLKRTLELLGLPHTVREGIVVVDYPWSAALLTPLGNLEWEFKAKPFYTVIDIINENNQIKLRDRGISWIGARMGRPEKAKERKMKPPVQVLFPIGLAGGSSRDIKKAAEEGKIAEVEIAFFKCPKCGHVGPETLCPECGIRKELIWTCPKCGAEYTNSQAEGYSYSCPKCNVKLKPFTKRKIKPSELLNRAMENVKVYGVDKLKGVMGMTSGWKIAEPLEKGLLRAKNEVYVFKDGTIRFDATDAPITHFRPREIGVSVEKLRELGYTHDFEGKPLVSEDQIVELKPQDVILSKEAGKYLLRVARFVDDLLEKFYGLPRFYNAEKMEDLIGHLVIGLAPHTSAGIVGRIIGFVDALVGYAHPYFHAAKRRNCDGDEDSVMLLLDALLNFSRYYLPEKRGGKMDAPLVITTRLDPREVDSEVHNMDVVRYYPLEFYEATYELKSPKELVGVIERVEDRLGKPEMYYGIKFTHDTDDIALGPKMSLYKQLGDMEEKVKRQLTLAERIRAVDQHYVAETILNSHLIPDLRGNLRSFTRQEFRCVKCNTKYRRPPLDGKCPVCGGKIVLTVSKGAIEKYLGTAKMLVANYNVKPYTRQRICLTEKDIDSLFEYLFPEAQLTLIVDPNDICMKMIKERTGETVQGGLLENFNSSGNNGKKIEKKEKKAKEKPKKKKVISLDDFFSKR
# Sequence (P81412 whole entry, chain 2 of 2): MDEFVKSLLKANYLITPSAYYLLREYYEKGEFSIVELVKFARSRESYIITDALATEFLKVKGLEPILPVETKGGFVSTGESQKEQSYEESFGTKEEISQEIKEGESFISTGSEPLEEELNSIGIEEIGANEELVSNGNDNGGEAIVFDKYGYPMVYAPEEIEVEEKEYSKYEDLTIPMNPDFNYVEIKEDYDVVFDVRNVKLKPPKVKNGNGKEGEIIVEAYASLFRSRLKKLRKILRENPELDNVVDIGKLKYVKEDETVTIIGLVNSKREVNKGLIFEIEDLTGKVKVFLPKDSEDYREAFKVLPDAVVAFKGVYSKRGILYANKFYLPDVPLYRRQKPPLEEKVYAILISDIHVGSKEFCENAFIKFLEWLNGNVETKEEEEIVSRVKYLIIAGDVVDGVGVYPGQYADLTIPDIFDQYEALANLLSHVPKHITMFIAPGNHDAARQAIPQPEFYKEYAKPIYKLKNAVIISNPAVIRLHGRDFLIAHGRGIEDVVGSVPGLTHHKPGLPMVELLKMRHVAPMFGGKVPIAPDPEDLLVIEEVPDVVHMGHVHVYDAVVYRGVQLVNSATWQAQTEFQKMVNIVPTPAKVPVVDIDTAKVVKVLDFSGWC
# ASSAY_TEXT: fluorescence anisotropy
# Lookup of reported Kd keyed by entry
The answer should read as a number with its unit following.

See these solved cases before continuing.
Lookup: Item under review: primer-template +1, X=T (dsDNA) DNA 1: TTTCTGGTTCCAGCTGGACCATTCGCCTATAGGACCTATT DNA 2: AATAGGTCCTATAGGCGAATGGTCCAGCTGG . Reported Kd?
Found: 9.1 nM

Lookup: Item under review: primer-template -1, X=U (dsDNA, deoxyuridine at template position 9) DNA 1: TTTCTGGTUCCAGCTGGACCATTCGCCTATAGGACCTATT DNA 2: AATAGGTCCTATAGGCGAATGGTCCAGCTGGAA . Reported Kd?
Found: 5.2 nM

Kindly consider the entry below.
Lookup: Item under review: TTTCTGGTUCCAGCTGGACCATTCGCCTATAGGACCTATT (ssDNA, deoxyuridine at position 9) [single strand, X=U] . Reported Kd?
Found: 3.4 nM
